The measured values listed here are drawn from patent US20120108501A1.

# System: human peripheral blood mononuclear cells (PBMCs)
# Format: cell-based
Please go through the items and note down their CC50.
Give bare numbers, in µM.

Illustrative cases are given below, each with its answer.
CCCCCCCCCCCCCCCCOCC(COP(=O)(O)OC(CN(Cc1ccc(-c2ccccn2)cc1)NC(=O)C(NC(=O)OC)C(C)(C)C)C(Cc1ccccc1)NC(=O)C(NC(=O)OCCOCCOCCOC)C(C)(C)C)OC (stereo not drawn) [mPEG3-Atazanavir-monophospholipid]: 43.7
CCCCCCCCCCCCCCCCOCC(COP(=O)(O)OC(CN(Cc1ccc(-c2ccccn2)cc1)NC(=O)C(NC(=O)OC)C(C)(C)C)C(Cc1ccccc1)NC(=O)C(NC(=O)OCCOCCOCCOCCOCCOC)C(C)(C)C)OC (stereo not drawn) [mPEG5-Atazanavir-monophospholipid]: 17.1

Let's switch to this molecule now.
Would you kindly share the measured CC50 for CCCCCCCCCCCCCCCCOCC(COP(=O)(O)OC(CN(Cc1ccc(-c2ccccn2)cc1)NC(=O)C(NC(=O)OC)C(C)(C)C)C(Cc1ccccc1)NC(=O)C(NC(=O)OCCOCCOCCOCCOCCOCCOC)C(C)(C)C)OC (stereo not drawn) [mPEG6-Atazanavir-monophospholipid, mPEG6-atazanavir monophospholipid] ?
37.6
